- method_description: Primary qHTS for delayed death inhibitors of the malarial parasite plastid, 48 hour incubation
- condition_context: P. falciparum luciferase growth in erythrocytes; series mostly up to 28.7 µM
The campaign covered roughly 310,000 compounds. About 18,000 (5.8%) were called active. Another 22% or so got no clear call; they are omitted. Calls follow the shape of the dose curve; as a rule, active = well fitted inhibition curve with a large enough effect; inconclusive = small, poorly fitted or top-dose-only effect, or another doubt; inactive = no such curve, though single readings can be large or run the other way. For the sample, actives were picked, then their nearest neighbours and some compounds at random.
Outcome codes: active, inactive

>  <molecule>
Cc1nn(C(=O)c2ccoc2C)c(N)c1-c1ccccc1

>  <classification>
inactive

$$$$
>  <molecule>
C=CCn1c(-c2ccccc2OCC)n[nH]c1=S

>  <classification>
inactive

$$$$
>  <molecule>
CC1CC(C)CN(c2ccc(S(=O)(=O)N3CCOCC3)cc2)C1 (configuration not stated)

>  <classification>
inactive

$$$$
>  <molecule>
CN(C)CC(O)COc1ccc(C(C)(C)c2ccc(OCC(O)CN(C)C)cc2)cc1 (configuration not stated)

>  <classification>
active

$$$$
>  <molecule>
CCC(=O)OCCNc1nc(-c2ccccc2)nc2ccccc12

>  <classification>
inactive

$$$$
>  <molecule>
CCOc1ccc(OCC(=O)Nc2c3c(nn2C(C)(C)C)CS(=O)(=O)C3)cc1

>  <classification>
inactive

$$$$
>  <molecule>
CC(C)CNC(=O)C(=O)NCC(c1ccc2c(c1)OCO2)N1CCOCC1 (configuration not stated)

>  <classification>
inactive

$$$$
>  <molecule>
CCOC(=O)c1c(NC(=O)CSc2nccc(=O)[nH]2)sc(C)c1C

>  <classification>
inactive

$$$$
>  <molecule>
CC(=O)c1nn(-c2cccc(C(F)(F)F)c2)c(=O)[nH]c1=O

>  <classification>
inactive

$$$$
>  <molecule>
CCCc1cc(-c2n[nH]c(=S)n2CC)c2ccccc2n1

>  <classification>
active

$$$$
>  <molecule>
C=CCn1cc(C(=O)NCc2ccc(Cl)cc2)c(=O)c2cc(S(=O)(=O)N(CC)CC)ccc21

>  <classification>
active

$$$$
>  <molecule>
Cc1cc(C)c(NC(=O)C[N+](C)(C)CC(O)COc2cccc3ccccc23)c(C)c1 (configuration not stated)

>  <classification>
active

$$$$
>  <molecule>
CCc1ccc(-c2cc(C)no2)cc1S(=O)(=O)NCCc1ccc(S(N)(=O)=O)cc1

>  <classification>
inactive

$$$$
>  <molecule>
Cc1cc(C)n(CC(O)COc2ccc(C(C)(C)C)cc2)n1 (configuration not stated)

>  <classification>
inactive

$$$$
>  <molecule>
Cc1cc(C)c(S(=O)(=O)N2CCC(C(=O)OCc3c(C)noc3C)CC2)c(C)c1

>  <classification>
active

$$$$
>  <molecule>
O=C(NC1CCCC1)C1CCN(C(=O)Nc2cccc(Cl)c2)CC1

>  <classification>
inactive

$$$$
>  <molecule>
COc1ccc([N+](=O)[O-])cc1NCC(=O)c1ccc(C)cc1

>  <classification>
inactive

$$$$
>  <molecule>
COc1ccc(NC(=O)CSc2ccc(-c3ccco3)nn2)c(OC)c1

>  <classification>
inactive

$$$$
>  <molecule>
COc1ccc(CN2CC(C(=O)NC3CCCCC3)CC2=O)cc1 (configuration not stated)

>  <classification>
inactive

$$$$
>  <molecule>
Cc1cc(C)c(NC(=O)CN2CCCCCC2)c(C)c1

>  <classification>
inactive

$$$$
>  <molecule>
COC(=O)c1ccc2ccccc2c1OC1OC(CO)C(O)C(O)C1NC(C)=O (configuration not stated)

>  <classification>
inactive

$$$$
>  <molecule>
N#Cc1ccc(Oc2cc(C(F)(F)F)nc(-c3ccccn3)n2)cc1

>  <classification>
inactive

$$$$
>  <molecule>
CCN(CC)S(=O)(=O)c1ccc(Cl)c(C(=O)NCCN2CCOCC2)c1

>  <classification>
inactive

$$$$
>  <molecule>
COc1cnc(-c2ccccn2)nc1Oc1ccc(C(C)(C)C)cc1

>  <classification>
active

$$$$
>  <molecule>
COc1ccc(-c2nn(-c3ccccc3)cc2CN2CCCO2)c(F)c1

>  <classification>
inactive

$$$$
>  <molecule>
Cc1cc(C)cc(OCC(=O)NCc2cc(C)nc3ccccc23)c1

>  <classification>
inactive

$$$$
>  <molecule>
Cc1ccc(S(=O)(=O)N2CCN(C(=O)COC(=O)c3c(C)noc3C)CC2)c(C)c1

>  <classification>
inactive

$$$$
>  <molecule>
N#C[C@]1(S(=O)(=O)c2ccccc2)C[C@@H]2ON=C(c3cccc(Br)c3)[C@@H]2C1

>  <classification>
inactive

$$$$
>  <molecule>
CC1CCCC(NC(=O)c2cc(-c3ccncc3)nc3ccccc23)C1C (configuration not stated)

>  <classification>
inactive

$$$$
>  <molecule>
Cc1nn2c(c1-c1ccccc1)N=C(c1ccco1)CC2c1ccccc1 (configuration not stated)

>  <classification>
active

$$$$
>  <molecule>
Cc1ccsc1-c1cc(C(=O)O)c2c(ccc3ccccc32)n1

>  <classification>
inactive

$$$$
>  <molecule>
Cc1cccc(NC(=O)C(C)SCc2ccccc2)c1 (configuration not stated)

>  <classification>
inactive

$$$$
>  <molecule>
Cc1ccc(S(=O)(=O)N2CCN(C(=O)COC(=O)c3c(C)cc(C)cc3C)CC2)c(C)c1

>  <classification>
active

$$$$
>  <molecule>
OC(COc1ccc(Br)cc1)CN1CCCC1 (configuration not stated)

>  <classification>
inactive

$$$$
>  <molecule>
COc1nc(N=C(N)N)nc2c(C)cccc12

>  <classification>
active

$$$$
>  <molecule>
CN(CC(=O)Nc1cccc(F)c1)C(=O)CC1CCCC1

>  <classification>
inactive

$$$$
>  <molecule>
CC(C)(C)Nc1nc(-c2ccccn2)nc2ccccc12

>  <classification>
active

$$$$

Sourced from PubChem BioAssay AID504832
